STUDY_TARGET: Cathepsin K (Homo sapiens)
Sequence (P43235 whole entry): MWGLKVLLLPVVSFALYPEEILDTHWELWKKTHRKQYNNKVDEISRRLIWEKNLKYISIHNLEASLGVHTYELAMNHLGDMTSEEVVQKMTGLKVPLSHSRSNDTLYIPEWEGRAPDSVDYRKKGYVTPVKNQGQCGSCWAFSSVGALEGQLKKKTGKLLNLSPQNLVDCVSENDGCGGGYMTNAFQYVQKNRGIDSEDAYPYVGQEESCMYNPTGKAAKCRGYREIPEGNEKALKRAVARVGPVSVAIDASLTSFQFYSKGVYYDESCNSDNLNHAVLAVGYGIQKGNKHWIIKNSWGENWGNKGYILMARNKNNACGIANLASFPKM
ASSAY_PROTOCOL: Inhibition of cathepsin K
OBSERVED_PROPERTY: Ki (nM)
Numeric answer only, unit nM assumed.

Input: So what's the measured Ki for this one? "CC(C)C[C@@H](NC(=O)c1ccc2ccccc2c1)C(=O)N[C@@H]1COCC1=O"
Output: 470

Input: So what's the measured Ki for this one? CC(C)C[C@H](NC(=O)c1cc2ccccc2s1)C(=O)NC1CCOCC1=O (single isomer, unassigned; diastereomer 1)
Output: 8

Input: So what's the measured Ki for this one? CC(C)C[C@H](NC(=O)c1ccc2ccccc2c1)C(=O)NC1CCOCC1=O (single isomer, unassigned; diastereomer 2)
Output: 380

Input: So what's the measured Ki for this one? "CC(C)C[C@H](NC(=O)c1ccc2ccccc2c1)C(=O)N[C@H]1COCC1=O"
Output: 14

Input: So what's the measured Ki for this one? "CC(C)C[C@H](NC(=O)c1ccc2ccccc2n1)C(=O)N[C@H]1COCC1=O"
Output: 15

Input: So what's the measured Ki for this one? CC(C)C[C@H](NC(=O)c1cc2ccccc2s1)C(=O)NC1CCOCC1=O (single isomer, unassigned; diastereomer 2)
Output: 70

Input: So what's the measured Ki for this one? COc1ccc(CC(=O)N[C@@H](CC(C)C)C(=O)NC2CCOCC2=O)cc1OC (stereo partly drawn)
Output: 10

Input: So what's the measured Ki for this one? "CC(C)C[C@@H](NC(=O)c1cc2ccccc2s1)C(=O)N[C@@H]1COCC1=O"
Output: 68
